assay: pharmacokinetic study in plasma after i.v. and i.p. administration; format: in vivo, mice; details: CD-1, mouse, plasma, ip; after i.p. administration; AUCi.p./AUCi.v.; HBK-14 2.5 mg/kg, HBK-15 1.25 mg/kg; read-out: F (absolute bioavailability)
measured_attribute: bioavailability (%)
Field: numeric (%). Do not append units.

q: Recorded bioavailability for COc1ccccc1N1CCN(CCOCCOc2c(C)cccc2Cl)CC1.Cl [HBK-15] , please?
a: 54

Now, please, on to the next compound.
q: Query (compound): COc1ccccc1N1CCN(CCOCCOc2c(C)cccc2C)CC1.Cl [HBK-14] ; field requested: bioavailability
a: 15

* * *

test: pharmacokinetic study in plasma after i.v. and i.p. administration; type: in vivo, mice; conditions: CD-1, mouse, plasma, iv; HBK-14 2.5 mg/kg, HBK-15 1.25 mg/kg; read-out: V d (volume of distribution at steady state)
Entries and their Vd values follow.
The response must be a number in L/kg with no trailing unit.

q: Looking for the measured Vd of COc1ccccc1N1CCN(CCOCCOc2c(C)cccc2C)CC1.Cl [HBK-14] , can you help?
a: 11.2

Pending compound:
q: Endpoint output: Vd of COc1ccccc1N1CCN(CCOCCOc2c(C)cccc2Cl)CC1.Cl [HBK-15] . Value?
a: 3.5

* * *

test: pharmacokinetic study in plasma after i.v. and i.p. administration; type: in vivo, mice; conditions: CD-1, mouse, plasma, ip; HBK-14 2.5 mg/kg, HBK-15 1.25 mg/kg; read-out: t max (time to reach the maximum plasma concentration) (converted)
Parameter: Tmax. Scope: all listed entries.
Numeric answer only, unit min assumed.

q: Which value of Tmax has been reported for COc1ccccc1N1CCN(CCOCCOc2c(C)cccc2Cl)CC1.Cl in the records?
a: 5

Next:
q: May I ask what Tmax has been recorded for COc1ccccc1N1CCN(CCOCCOc2c(C)cccc2C)CC1.Cl ?
a: 5

* * *

assay: pharmacokinetic study in plasma after i.v. and i.p. administration; assay type: in vivo, mice; conditions: CD-1, iv; i.v.; HBK-14 2.5 mg/kg, HBK-15 1.25 mg/kg; mouse plasma
measured_attribute: AUC(0-inf) (ng·h/mL)
Write the value in ng·h/mL as a bare number.

q: Query (compound): COc1ccccc1N1CCN(CCOCCOc2c(C)cccc2Cl)CC1.Cl ; field requested: AUC(0-inf)
a: 484

New cases:
q: Item under review: COc1ccccc1N1CCN(CCOCCOc2c(C)cccc2C)CC1.Cl . Reported AUC(0-inf)?
a: 1720

* * *

assay: distribution to brain after i.v. and i.p. administration; assay type: in vivo, mice; details: CD-1, mouse, brain and plasma, iv; HBK-14 2.5 mg/kg, HBK-15 1.25 mg/kg; read-out: brain/plasma ratio
measured_attribute: Kp
Respond with the number and no other words.

q: Item under review: COc1ccccc1N1CCN(CCOCCOc2c(C)cccc2C)CC1.Cl . Reported Kp?
a: 0.8

Alright, here's another compound for you.
q: Look at this compound and give its reported Kp. COc1ccccc1N1CCN(CCOCCOc2c(C)cccc2Cl)CC1.Cl
a: 0.68

* * *

Measured C0, listed per entry for reference.
assay: pharmacokinetic study in plasma after i.v. and i.p. administration; format: in vivo, mice; conditions: CD-1, iv; i.v.; HBK-14 2.5 mg/kg, HBK-15 1.25 mg/kg; mouse plasma; read-out: C 0 (initial concentration)
Please state the figure in ng/mL; there is no need to write the unit.

q: Entry under review: COc1ccccc1N1CCN(CCOCCOc2c(C)cccc2C)CC1.Cl [HBK-14] . Reported C0?
a: 410

Continue with the next compound.
q: Endpoint output: C0 of COc1ccccc1N1CCN(CCOCCOc2c(C)cccc2Cl)CC1.Cl [HBK-15] . Value?
a: 602
